# target_or_test_system: (cp)FtsY‐NG (Arabidopsis thaliana, UniProt O80842)
# Sequence (O80842 65-366): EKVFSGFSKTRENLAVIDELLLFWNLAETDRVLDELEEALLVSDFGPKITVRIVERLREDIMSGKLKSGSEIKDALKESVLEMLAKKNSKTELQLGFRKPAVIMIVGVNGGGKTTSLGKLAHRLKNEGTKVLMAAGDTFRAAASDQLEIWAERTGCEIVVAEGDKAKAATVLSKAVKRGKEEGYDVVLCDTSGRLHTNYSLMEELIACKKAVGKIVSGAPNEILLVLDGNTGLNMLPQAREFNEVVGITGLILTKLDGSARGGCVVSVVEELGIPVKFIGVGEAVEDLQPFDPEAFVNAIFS
result_type: Kd (µM)
# unit: µM | format: bare number

Data request: Could you share which Kd value was measured for `Nc1nc2c(ncn2[C@@H]2O[C@H](COP(=O)(O)OP(=O)(O)O)[C@@H](OP(=O)(O)OP(=O)(O)O)[C@H]2O)c(=O)[nH]1` ?
Data returned: 7.36

---

# target_or_test_system: (cp)SRP54 (Arabidopsis thaliana)
# Sequence (P37107 79-564): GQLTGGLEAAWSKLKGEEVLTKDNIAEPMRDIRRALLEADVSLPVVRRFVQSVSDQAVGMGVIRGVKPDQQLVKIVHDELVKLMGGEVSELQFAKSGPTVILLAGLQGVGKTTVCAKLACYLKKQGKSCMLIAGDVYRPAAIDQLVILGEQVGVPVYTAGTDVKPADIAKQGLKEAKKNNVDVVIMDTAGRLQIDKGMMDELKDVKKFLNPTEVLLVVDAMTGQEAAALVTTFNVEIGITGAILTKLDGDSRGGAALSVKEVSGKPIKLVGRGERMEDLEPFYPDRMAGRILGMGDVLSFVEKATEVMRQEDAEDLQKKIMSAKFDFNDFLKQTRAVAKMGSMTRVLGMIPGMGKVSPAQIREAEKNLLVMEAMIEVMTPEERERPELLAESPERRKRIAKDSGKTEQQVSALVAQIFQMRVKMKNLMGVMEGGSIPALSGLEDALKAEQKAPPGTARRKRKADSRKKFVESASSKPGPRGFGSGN
Measured pKd values are reported for all entries that follow.
Scale: negative log10 of molar concentration, which is what pKd denotes.

Data request: Look up pKd for this compound: `Nc1nc2c(ncn2[C@@H]2O[C@H](COP(=O)(O)OP(=O)(O)O)[C@@H](OP(=O)(O)OP(=O)(O)O)[C@H]2O)c(=O)[nH]1`
Data returned: 4.49

Data request: Now consider `Nc1nc2c(ncn2[C@@H]2O[C@H](COP(=O)(O)OP(=O)(O)O)[C@@H](O)[C@H]2O)c(=O)[nH]1` .
Data returned: 4.63
